Molecular target: PIK3CB;PIK3CG;PIK3CD;PIK3CA (human)
Experiment: Enzyme Assay
pIC50: −log10 of the molar value.

SMILES INPUT: OCc1cc(N2CCOCC2)c2nc(-n3ccnc3)nc(N3CCOCC3)c2n1
pIC50: 5.53

SMILES INPUT: Cc1ccc2nc(Cl)nc(N3CCOCC3)c2n1
pIC50: 5.06

SMILES INPUT: COC(=O)c1cc(N(C)C)c2nc(-n3ccnc3)nc(N3CCOCC3)c2n1
pIC50: 6.38

SMILES INPUT: COC(=O)c1cc(S(C)(=O)=O)c2nc(Cl)nc(N3CCOCC3)c2n1
pIC50: 5.64

SMILES INPUT: COC(=O)c1cc(-n2cccc2)c2nc(-n3cccc3)nc(N3CCOCC3)c2n1
pIC50: 5.09

SMILES INPUT: Cc1noc(-c2cc(Cl)c3nc(-n4ccnc4)nc(N4CCOCC4)c3n2)n1
pIC50: 5.48

SMILES INPUT: CN(C)CCNC(=O)c1cc(NCCN(C)C)c2nc(-n3ccnc3)nc(N3CCOCC3)c2n1
pIC50: 5.75

SMILES INPUT: OCc1ccc2nc(-n3ccnc3)nc(N3CCOCC3)c2n1
pIC50: 5.40

SMILES INPUT: CNC(=O)c1ccc2nc(-n3ccnc3)nc(N3CCOCC3)c2n1
pIC50: 5.96

SMILES INPUT: COCc1ccc2nc(-n3ccnc3)nc(N3CCOCC3)c2n1
pIC50: 6.08

SMILES INPUT: COC(=O)c1cc(SC)c2nc(-c3cnn(C)c3)nc(N3CCOCC3)c2n1
pIC50: 5.92

SMILES INPUT: COCCN(C)c1cc(-c2nc(C)no2)nc2c(N3CCOCC3)nc(-n3cccn3)nc12
pIC50: 5.60

SMILES INPUT: CSc1cc(CO)nc2c(N3CCOCC3)nc(-c3ccsc3)nc12
pIC50: 5.41

SMILES INPUT: CSCc1ccc2nc(-n3ccnc3)nc(N3CCOCC3)c2n1
pIC50: 5.42

SMILES INPUT: CSc1cc(-c2nc(C)no2)nc2c(N3CCOCC3)nc(-n3cccn3)nc12
pIC50: 6.66

SMILES INPUT: COCCN(C)c1cc(-c2nnc(C)o2)nc2c(N3CCOCC3)nc(-n3ccnc3)nc12
pIC50: 6.38

SMILES INPUT: NC(=O)c1ccc2nc(-n3ccnc3)nc(N3CCOCC3)c2n1
pIC50: 5.74

SMILES INPUT: COC(=O)c1cc(Cl)c2nc(-n3ccnc3)nc(N3CCOCC3)c2n1
pIC50: 6.09

SMILES INPUT: COC(=O)c1cc(SC)c2nc(-c3cccc4[nH]ccc34)nc(N3CCOCC3)c2n1
pIC50: 5.90

SMILES INPUT: CN(C)Cc1ccc2nc(-n3ccnc3)nc(N3CCOCC3)c2n1
pIC50: 5.49

SMILES INPUT: COC(=O)c1cc(SC)c2nc(-c3ccccc3)nc(N3CCOCC3)c2n1
pIC50: 5.55

SMILES INPUT: COC(=O)c1cc(SC)c2nc(-c3ccsc3)nc(N3CCOCC3)c2n1
pIC50: 5.74

SMILES INPUT: CN(C)C(=O)c1ccc2nc(-n3ccnc3)nc(N3CCOCC3)c2n1
pIC50: 5.53

SMILES INPUT: COC(=O)c1cc(S(C)(=O)=O)c2nc(-n3ccnc3)nc(N3CCOCC3)c2n1
pIC50: 6.24
